For each entry below, report its fold change of affinity value.
Target: Human CD137 ECD (human)
Sequence (chain, as listed by the source limits assumed): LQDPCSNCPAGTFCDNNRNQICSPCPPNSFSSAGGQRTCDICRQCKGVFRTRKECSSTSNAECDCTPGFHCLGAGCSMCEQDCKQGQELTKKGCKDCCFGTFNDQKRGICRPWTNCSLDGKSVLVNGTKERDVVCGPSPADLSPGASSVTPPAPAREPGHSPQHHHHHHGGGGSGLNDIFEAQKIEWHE
Assay: SPR, vs parent H183/L072
Give bare numbers, in fold.

# count of solved cases: 2
dBBDu183H A102F / dBBDu072L (antibody, name in Kabat numbering, V domains shown) VH: QVQLVESGGGLVQPGRSLRLSCAASGFTFSNAWMHWVRQAPGKGLEWVAQIKDKGNAYAAYYAPSVKGRFTISRDDSKNSIYLQMNSLKTEDTAVYYCHYVHYASASTVLPAFGVDFWGQGTTVTVSS VL: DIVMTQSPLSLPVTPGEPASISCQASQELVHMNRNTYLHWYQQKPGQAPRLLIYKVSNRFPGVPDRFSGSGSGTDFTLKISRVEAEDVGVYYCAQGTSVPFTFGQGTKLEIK | 0
dBBDu183H Y97S / dBBDu072L (antibody, name in Kabat numbering, V domains shown) VH: QVQLVESGGGLVQPGRSLRLSCAASGFTFSNAWMHWVRQAPGKGLEWVAQIKDKGNAYAAYYAPSVKGRFTISRDDSKNSIYLQMNSLKTEDTAVYYCHYVHSASASTVLPAFGVDAWGQGTTVTVSS VL: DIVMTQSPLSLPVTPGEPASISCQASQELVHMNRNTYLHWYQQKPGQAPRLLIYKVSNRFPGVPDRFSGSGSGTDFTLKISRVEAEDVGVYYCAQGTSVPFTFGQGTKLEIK | 0

Kindly review the next binder as well.
# return recorded fold change of affinity for entry dBBDu183H P100eV / dBBDu072L (antibody, name in Kabat numbering, V domains shown) VH: QVQLVESGGGLVQPGRSLRLSCAASGFTFSNAWMHWVRQAPGKGLEWVAQIKDKGNAYAAYYAPSVKGRFTISRDDSKNSIYLQMNSLKTEDTAVYYCHYVHYASASTVLVAFGVDAWGQGTTVTVSS VL: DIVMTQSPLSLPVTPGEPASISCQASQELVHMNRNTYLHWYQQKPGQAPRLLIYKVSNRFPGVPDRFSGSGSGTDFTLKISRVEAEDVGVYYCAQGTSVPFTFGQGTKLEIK
0
